# experimental target: DiB-RM-split (Escherichia coli, UniProt P0A901, A36C/F53A/N76F/S89Y/E90V/S107A/L141N)
# Construct: gene blc; two co-expressed self-assembling fragments of DiB-RM split between residues 109 and 110; E. coli XJb(DE3), TALON then size exclusion
# procedure details: fluorescence titration
# Format: binding
# conditions used: apparent Kd, 1 μM chromophore, varied protein, excitation 490 nm
# Excerpt: fluorescence titration on DiB-RM-split
readout name: pKd
Scale: pKd equals -log10([C]), with [C] in mol/L.

QUERY: Form field - read-out: pKd; system: DiB-RM-split (Escherichia coli, UniProt P0A901, A36C/F53A/N76F/S89Y/E90V/S107A/L141N); submitted item: CCN(CC)c1ccc2c(c1)[B-](F)(F)[N+]1=C(C)N(C)C(=O)C1=C2
RESULT: 5.55

###

# experimental target: DiB1; DiB-RM (lipocalin Blc mutants) (Escherichia coli, UniProt P0A901, A36C/L141N)
# Construct: E. coli XJb(DE3) expression from pBAD, TALON then size exclusion; monomer in solution
# Sequence (P0A901 20-177 A36C/L141N): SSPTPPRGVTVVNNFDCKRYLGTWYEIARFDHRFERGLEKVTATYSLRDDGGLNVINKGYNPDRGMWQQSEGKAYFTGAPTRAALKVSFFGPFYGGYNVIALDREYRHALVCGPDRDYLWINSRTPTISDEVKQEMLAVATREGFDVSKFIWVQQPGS
# procedure details: fluorescence titration
# conditions used: apparent Kd, 1 μM chromophore, varied protein, excitation 490 nm
readout name: Kd
Include the unit right after the number.

QUERY: Field request: Kd | item: CCN(CC)c1ccc2c(c1)[B-](F)(F)[N+]1=C(C)N(C)C(=O)C1=C2
RESULT: 0.04 µM

###

# experimental target: DiB1; DiB-RM (lipocalin Blc mutants) (Escherichia coli, UniProt P0A901, A36C/F53A/N76F/S89Y/E90V/L141N)
# Construct: E. coli XJb(DE3) expression from pBAD, TALON then size exclusion; monomer in solution
# procedure details: fluorescence titration
# conditions used: DiB-RM-A107S; apparent Kd; 1 μM chromophore, varied protein; excitation 490 nm
readout name: Kd (nM)
State the answer as a number, implicitly in nM.

QUERY: Field request: Kd | item: CCN(CC)c1ccc2c(c1)[B-](F)(F)[N+]1=C(C)N(C)C(=O)C1=C2 [M739]
RESULT: 290

###

# experimental target: DiB1; DiB-RM (lipocalin Blc mutants) (Escherichia coli, UniProt P0A901, A36C/F53A/N76F/S89Y/E90V/S107A/L141N)
# Construct: E. coli XJb(DE3) expression from pBAD, TALON then size exclusion; monomer in solution
# procedure details: fluorescence titration
# Assay type: binding
# conditions used: apparent Kd, 1 μM chromophore, varied protein, excitation 490 nm
readout name: pKd
Scale: pKd equals -log10([C]), with [C] in mol/L.

QUERY: Field request: pKd | item: CCN(CC)c1ccc2c(c1)[B-](F)(F)[N+]1=C(C)N(C)C(=O)C1=C2
RESULT: 6.77

###

# experimental target: DiB1; DiB-RM (lipocalin Blc mutants) (Escherichia coli, UniProt P0A901, A36C/N76F/S89Y/E90V/S107A/L141N)
# Construct: E. coli XJb(DE3) expression from pBAD, TALON then size exclusion; monomer in solution
# Sequence (P0A901 20-177 A36C/N76F/S89Y/E90V/S107A/L141N): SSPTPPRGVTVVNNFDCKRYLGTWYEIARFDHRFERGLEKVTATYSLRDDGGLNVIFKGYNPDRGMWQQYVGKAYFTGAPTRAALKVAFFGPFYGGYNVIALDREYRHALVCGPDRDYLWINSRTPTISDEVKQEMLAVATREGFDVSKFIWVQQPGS
# procedure details: fluorescence titration
# conditions used: DiB-RM-A53F; apparent Kd; 1 μM chromophore, varied protein; excitation 490 nm
readout name: Kd (nM)
State the answer as a number, implicitly in nM.

QUERY: Field request: Kd | item: CCN(CC)c1ccc2c(c1)[B-](F)(F)[N+]1=C(C)N(C)C(=O)C1=C2
RESULT: 160
